System: Bifidobacterium longum
Assay name: Antimicrobial activity against Bifidobacterium longum ATCC 15708
Format: functional
Give measured MIC for each item. Keep answers brief.
Answers are plain numbers, in µg/mL.

Smiles notation	Experimental target	Measured result
CN[C@H](CC(C)C)C(=O)N[C@H]1C(=O)N[C@@H](CC(N)=O)C(=O)N[C@H]2C(=O)N[C@H]3C(=O)N[C@H](C(=O)N[C@H](C(=O)O)c4cc(O)cc(O)c4-c4cc3ccc4O)[C@H](O)c3ccc(c(Cl)c3)Oc3cc2cc(c3O[C@@H]2O[C@H](CO)[C@@H](O)[C@H](O)[C@H]2O[C@H]2C[C@](C)(N)[C@H](O)[C@H](C)O2)Oc2ccc(cc2Cl)[C@H]1O	Bifidobacterium longum	500
O=C(N[C@H](CO)[C@H](O)c1ccc([N+](=O)[O-])cc1)C(Cl)Cl	Bifidobacterium longum	31.2
CC1(C)S[C@@H]2[C@H](NC(=O)[C@H](N)c3ccccc3)C(=O)N2[C@H]1C(=O)O	Bifidobacterium longum	7.8

# context switch: different compound, same MIC
Problem: I am curious: what MIC value has been reported for NC[C@@H]1O[C@H](O[C@H]2[C@@H](O)[C@H](O[C@@H]3[C@@H](O)[C@H](N)C[C@H](N)[C@H]3O[C@H]3O[C@H](CN)[C@@H](O)[C@H](O)[C@H]3N)O[C@@H]2CO)[C@H](N)[C@@H](O)[C@@H]1O ?
Result: 250
